assay_endpoint: melting point (°C)

melting point lookup needed for CC(=O)CN1CCC(CCN2CCN(c3cccc(Oc4ccccc4)c3)CC2)CC1.Cl.Cl , thanks.
241

melting point lookup needed for Cc1cc(C)cc(N2CCN(CC[C@H]3CC[C@H](NC(=O)CCCC#N)CC3)CC2)c1 [Example 249] , thanks.
169

melting point lookup needed for COCCCC(=O)N[C@H]1CC[C@H](CCN2CCN(c3ccccc3F)CC2)CC1 [Example 76] , thanks.
175

melting point lookup needed for Cc1cc(C)cc(C2=CCN(CC[C@H]3CC[C@H](NC(=O)CCCC#N)CC3)CC2)c1 , thanks.
166

melting point lookup needed for N#CCC(=O)N[C@H]1CC[C@H](CCN2CCN(c3cccc(Cl)c3Cl)CC2)CC1 [Example 143] , thanks.
188

melting point lookup needed for N#CCC(=O)N[C@H]1CC[C@H](CCN2CCN(c3cc(F)ccc3F)CC2)CC1 [Example 226] , thanks.
198

melting point lookup needed for Cc1ccc(F)c(N2CCN(CC[C@H]3CC[C@H](NC(=O)C4=CCCC4)CC3)CC2)c1 [Example 534] , thanks.
174

melting point lookup needed for NC(=O)CCC(=O)N[C@H]1CC[C@@H](CCN2CCN(c3cccc(F)c3)CC2)CC1 [Example 398] , thanks.
169

---

assay_endpoint: melting point (°C)

[I] O=C(CC(F)(F)F)N[C@H]1CC[C@H](CCN2CCN(c3cccc(C(F)(F)F)c3F)CC2)CC1 [Example 256]
[II] CC(=O)CN1CCC(CCN2CCN(c3cccc(Cl)c3)CC2)CC1 [Example 29]
Which value of melting point is greater, the one for I or the one for II ? Choose, then provide that item's label.
I
(I: 198 °C, II: 114 °C)

[P] COCCCC(=O)N[C@H]1CC[C@H](CCN2CCN(c3ccc(Cl)cc3Cl)CC2)CC1 [Example 761]
[Q] CC(=O)CN1CCC(CCN2CCN(c3cc(C)c(F)cc3Cl)CC2)CC1.Cl.Cl
For the pair P and Q , which member has the lower melting point number? Choose, then provide that item's label.
P

[1] COc1ccc(N2CCN(CC[C@H]3CC[C@H](NC(=O)CC#N)CC3)CC2)cc1 [Example 573]
[2] CC(F)(F)c1cccc(N2CCN(CC[C@H]3CC[C@H](NC(=O)CC#N)CC3)CC2)c1 [Example 281]
For the pair 1 and 2 , which member has the lower melting point number? Choose, then provide that item's label.
2

---

assay_endpoint: melting point (°C)

melting point lookup needed for COc1ccc(C)cc1N1CCN(CC[C@H]2CC[C@H](NC(=O)CCCC#N)CC2)CC1 , thanks.
164

[A] N#CCC(=O)N[C@H]1CC[C@H](CCN2CCN(c3cc(C(F)(F)F)ccc3F)CC2)CC1
[B] CCOCC(=O)N[C@H]1CC[C@H](CCN2CCN(c3cc(C(F)(F)F)ccc3F)CC2)CC1
For the pair A and B , which member has the lower melting point number? Choose, then provide that item's label.
B

---

assay_endpoint: melting point (°C)

Here's what some known entries look like.
melting point lookup needed for N#CCCC(=O)N1CCC(CCN2CCN(c3cccc(Cl)c3Cl)CC2)CC1 , thanks.
94

melting point lookup needed for N#CCC(=O)N[C@H]1CC[C@H](CCN2CCC(c3cc(C(F)(F)F)cc(C(F)(F)F)c3)CC2)CC1 , thanks.
164

melting point lookup needed for O=C(N[C@H]1CC[C@H](CCN2CCN(c3cc(F)c(F)c(F)c3)CC2)CC1)C1CC=CC1 , thanks.
224

melting point lookup needed for N#CCC(=O)N[C@H]1CC[C@H](CCN2CCN(c3ccc4c(c3)CCCC4)CC2)CC1 , thanks.
200

[A] CC(=O)CN1CCC(CCN2CCN(c3cc(C)ccc3F)CC2)CC1.Cl.Cl
[B] COCC(=O)N[C@H]1CC[C@H](CCN2CCN(c3cccc(C(F)(F)F)c3C#N)CC2)CC1
For the pair A and B , which member has the lower melting point number? Choose, then provide that item's label.
B
(B: 172 °C, A: 275 °C)
